For each record, write down the corresponding selectivity ratio.
Experiment: Selectivity index, ratio of CC50 for cytotoxicity against human HepAD38 cells to EC50 for antiviral activity against HBV infected in human HePAD38 cells
Format: toxicity, cell-based
Conditions: read-out: Ratio CC50/EC50

Some molecules with recorded selectivity ratio:
| molecule | selectivity ratio |
| --- | --- |
| CCOC(=O)c1c(S(=O)(=O)N2CCCC(C(=O)Nc3ccc(F)c(F)c3)C2)c(C)n(C)c1C (configuration not stated) | > 192 |
| CCOC(=O)c1c(S(=O)(=O)N2CCC[C@H](C(=O)Nc3ccc(F)c(C)c3)C2)c(C)n(CC(F)(F)F)c1C | 775 |
| C=C1[C@H](CO)[C@@H](O)C[C@@H]1n1cnc2c(=O)[nH]c(N)nc21 [ENTECAVIR ANHYDROUS] | > 155 |
| COC(=O)c1c(S(=O)(=O)N2CCC[C@H](C(=O)Nc3ccc(F)c(C)c3)C2)c(C)n(C(F)F)c1C | 179 |
| CCOC(=O)c1c(S(=O)(=O)N2CCC[C@H](C(=O)Nc3ccc(F)c(C)c3)C2)c(C)n(C2CC2)c1C | > 17 |
| Cc1c(C#N)c(S(=O)(=O)N2CCC[C@H](C(=O)Nc3ccc(F)c(Cl)c3)C2)c(C)n1C | > 22.7 |

Now consider a different molecule.
IN: Endpoint output: selectivity ratio of Cc1cc(NC(=O)c2cccc(S(=O)(=O)N[C@H]3CCOC3)c2)ccc1F . Value?
OUT: > 370
